Documented T1/2 across a set of molecules
# Run Description: Induction of H2S generation assessed as half life at 150 uM incubated at 22 degC and pH 8 by fluorescence spectrophotometry
# Type: functional
Give the number; min is assumed, so skip it.

> print(dat)
                                   molecule  experimental.result
1  O=C(O)[C@H](Cc1ccccc1)NP(O)(=S)c1ccccc1 (stereo partly drawn)                 4.58
2  S=P1(c2ccccc2)OCC2CCCN21 (stereo not drawn)                 29.2
3  CSCC[C@H](NP(O)(=S)c1ccccc1)C(=O)O (stereo partly drawn)                 4.26
4   S=P1(c2ccccc2)NCCCO1 (stereo not drawn)                 35.1
5  C[C@H](NP(O)(=S)c1ccccc1)C(=O)O (stereo partly drawn)                 4.33
6  O=C([O-])[C@H](Cc1cc2ccccc2[nH]1)NP([O-])(=S)c1ccccc1.[Li+].[Li+] (stereo partly drawn)                 8.54

Query: Return reported T1/2; argument: CC(C)[C@H](NP(O)(=S)c1ccccc1)C(=O)O (stereo partly drawn)
Response: 4.42

Query: // returns reported T1/2 for input O=C([O-])CNP([O-])(=S)c1ccccc1.[Li+].[Li+] (stereo not drawn)
Response: 6.44

Query: Name the recorded T1/2 for "S=P1(c2ccccc2)NCCN1" .
Response: 30
